Test: Pharmacokinetics following intravenous and oral administration in SD rats
Type: in vivo
Conditions: male, SD, rat, plasma, iv, 1 mg/kg, IV 1 mg/kg, Mean of 3 rats, read-out: Cmax

| test_smiles | Cmax [ng/mL] |
| --- | --- |
| CCc1nc2ccccn2c1C(=O)c1cc(Br)c(O)c(C#N)c1 | 6360 |

====

Assay: Pharmacokinetics following intravenous and oral administration in SD rats
Type: in vivo
Details: male, SD, rat, plasma, po, 10 mg/kg, PO 10 mg/kg, Mean of 3 rats, read-out: AUC(0-t)

| test_smiles | AUC(0-t) / ng·h/mL |
| --- | --- |
| CCc1nc2ccccn2c1C(=O)c1cc(Br)c(O)c(C#N)c1 | 91800 |

====

Listing of recorded inhibition at 0.5 µM by entry.
Molecular target: UniProt Q96S37
Sequence (Q96S37 whole entry): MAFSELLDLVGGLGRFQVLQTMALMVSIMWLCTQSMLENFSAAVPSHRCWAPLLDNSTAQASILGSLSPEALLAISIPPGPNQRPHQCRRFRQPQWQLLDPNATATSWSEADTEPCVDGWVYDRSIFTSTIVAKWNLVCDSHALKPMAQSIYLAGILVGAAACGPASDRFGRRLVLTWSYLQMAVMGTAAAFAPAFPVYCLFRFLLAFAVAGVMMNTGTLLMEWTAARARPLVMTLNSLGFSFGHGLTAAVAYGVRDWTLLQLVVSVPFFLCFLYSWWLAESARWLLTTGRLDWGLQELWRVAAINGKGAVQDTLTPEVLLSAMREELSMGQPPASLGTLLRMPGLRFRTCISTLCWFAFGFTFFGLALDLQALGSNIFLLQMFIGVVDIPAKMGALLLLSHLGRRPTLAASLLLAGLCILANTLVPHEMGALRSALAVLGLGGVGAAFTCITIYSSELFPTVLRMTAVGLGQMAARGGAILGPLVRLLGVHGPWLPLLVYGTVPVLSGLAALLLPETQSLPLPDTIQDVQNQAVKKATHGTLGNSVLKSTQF
Assay: Inhibition assay of uric acid transport in HEK293-hURAT1 transfection cell line
Assay type: cell-based
Settings: 500 nM; HEK293-hURAT1 transfection cell line; 14C-uric acid; average of three tests; read-out: Inhibitory rates of uric acid transport, ±SD (%)
readout_type: inhibition at 0.5 µM (%)

| compound | readout_type | units_symbol | numeric_readout |
| --- | --- | --- | --- |
| CCc1nc2ccccn2c1C(=O)c1cc(Br)c(O)c(C#N)c1 [Compound 38] | inhibition at 0.5 µM | % | 62.4 |
| CCc1nc2ccc(F)cn2c1C(=O)c1cc(Cl)c(O)c(Br)c1 [Compound 18] | inhibition at 0.5 µM | % | 65.4 |
| CCc1nc2ccccn2c1C(=O)c1cc(I)c(O)c(I)c1 [Compound 5] | inhibition at 0.5 µM | % | 63 |
| CCc1nc2ccc(O)cn2c1C(=O)c1cc(Br)c(O)c(Br)c1 [Compound 52] | inhibition at 0.5 µM | % | 57.5 |
| CCc1nc2ccccn2c1C(=O)c1cc(I)c(O)c(C#N)c1 [Compound 39] | inhibition at 0.5 µM | % | 64.1 |
| CCc1nc2ccccn2c1C(=O)c1cc(Cl)c(O)c(I)c1 [Compound 9] | inhibition at 0.5 µM | % | 60.6 |
| CCc1nc2ccccn2c1C(=O)c1cc(Br)c(O)c(I)c1 [Compound 11] | inhibition at 0.5 µM | % | 63.5 |
| CCc1nc2ccccn2c1C(=O)c1cc(Br)c(O)c(Br)c1 [Compound 4] | inhibition at 0.5 µM | % | 71.7 |
| CCc1nc2ccccn2c1C(=O)c1cc(Cl)c(O)c(Br)c1 [Compound 45] | inhibition at 0.5 µM | % | 62.9 |

====

Experiment: Pharmacokinetics following intravenous and oral administration in SD rats
Format: in vivo
Conditions: male, SD, rat, plasma, iv, 1 mg/kg, IV 1 mg/kg, Mean of 3 rats, read-out: MRT(0-∞)

| test_smiles | units_symbol | MRT inf |
| --- | --- | --- |
| CCc1nc2ccccn2c1C(=O)c1cc(Br)c(O)c(C#N)c1 | h | 5.5 |

====

Test: Pharmacokinetics following intravenous and oral administration in SD rats
Format: in vivo
Conditions: male, SD, rat, plasma, po, 10 mg/kg, PO 10 mg/kg vs IV 1 mg/kg, from AUC(0-t), individual rats 101-103
From the text: Dose formulation preparation for PO: Weight out the required amount of compound 74. Added approximately 70% of 0.5% CMC-Na with stirring, vortexing and sonication to mix well until visually well suspension. Then added the remaining vehicle to target total volume and vortex-mix. Dose formulation preparation for IV: Weight out the required amount of compound 74. […]

| molecule | units_symbol | bioavailability |
| --- | --- | --- |
| CCc1nc2ccccn2c1C(=O)c1cc(Br)c(O)c(C#N)c1 [Compound 74] | % | 101 |
